All values here come from patent US20240132624A1.

# target under test: T1, human FcRn/b2M (human, UniProt P61769 21-119, biotinylated)
# T1 construct: bought recombinant biotinylated protein (ACRO FCM-H82W4 or Immunitrack ITF01); also called hFcRn; hFcRn/hb2M
# assay overview: SPR pH 7.4;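 note: surface plasmon resonance kinetics, periplasmic extracts diluted 1:10 flowed over immobilized target at 25 °C, 120 s association then 600–3600 s dissociation, buffer with 150 mM NaCl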
reported metric: koff (s⁻¹)

Some entries whose results are on file:
>>> value("T0263018B11 S52aA (VHH, name in Kabat numbering, FLAG3-His6 tagged) VHH: EVQLVESGGGVVQPGGSLRLSCAASGFTFSSYAMYWVRQAPGKGLEWVSAISAGGGSTDYADSVKGRFTISRDNSKNTLYLQMNSLRPEDTALYYCAADTLYTSLTWYSYWGQGTLVTVSS")
0.029
>>> value("T0263018B11 F29H (VHH, name in Kabat numbering, FLAG3-His6 tagged) VHH: EVQLVESGGGVVQPGGSLRLSCAASGFTHSSYAMYWVRQAPGKGLEWVSAISSGGGSTDYADSVKGRFTISRDNSKNTLYLQMNSLRPEDTALYYCAADTLYTSLTWYSYWGQGTLVTVSS")
0.14
>>> value("T0263018B11 T28N (VHH, name in Kabat numbering, FLAG3-His6 tagged) VHH: EVQLVESGGGVVQPGGSLRLSCAASGFNFSSYAMYWVRQAPGKGLEWVSAISSGGGSTDYADSVKGRFTISRDNSKNTLYLQMNSLRPEDTALYYCAADTLYTSLTWYSYWGQGTLVTVSS")
0.097
>>> value("T0263018B11 S52aP (VHH, name in Kabat numbering, FLAG3-His6 tagged) VHH: EVQLVESGGGVVQPGGSLRLSCAASGFTFSSYAMYWVRQAPGKGLEWVSAISPGGGSTDYADSVKGRFTISRDNSKNTLYLQMNSLRPEDTALYYCAADTLYTSLTWYSYWGQGTLVTVSS")
0.029
>>> value("T0263018B11 S30Q (VHH, name in Kabat numbering, FLAG3-His6 tagged) VHH: EVQLVESGGGVVQPGGSLRLSCAASGFTFQSYAMYWVRQAPGKGLEWVSAISSGGGSTDYADSVKGRFTISRDNSKNTLYLQMNSLRPEDTALYYCAADTLYTSLTWYSYWGQGTLVTVSS")
0.035
>>> value("T0263018B11 W100cG (VHH, name in Kabat numbering, FLAG3-His6 tagged) VHH: EVQLVESGGGVVQPGGSLRLSCAASGFTFSSYAMYWVRQAPGKGLEWVSAISSGGGSTDYADSVKGRFTISRDNSKNTLYLQMNSLRPEDTALYYCAADTLYTSLTGYSYWGQGTLVTVSS")
0.42

(I) T0263018B11 T96M (VHH, name in Kabat numbering, FLAG3-His6 tagged) VHH: EVQLVESGGGVVQPGGSLRLSCAASGFTFSSYAMYWVRQAPGKGLEWVSAISSGGGSTDYADSVKGRFTISRDNSKNTLYLQMNSLRPEDTALYYCAADMLYTSLTWYSYWGQGTLVTVSS
(II) T0263018B11 W100cD (VHH, name in Kabat numbering, FLAG3-His6 tagged) VHH: EVQLVESGGGVVQPGGSLRLSCAASGFTFSSYAMYWVRQAPGKGLEWVSAISSGGGSTDYADSVKGRFTISRDNSKNTLYLQMNSLRPEDTALYYCAADTLYTSLTDYSYWGQGTLVTVSS
stdin: Consider I and II . Which of these has its koff at a higher number? Please reply using the label of the selected record.
stdout: II
(II: 0.14 s⁻¹, I: 0.067 s⁻¹)
